Hello, the source for this data is patent US11730720B2, in case you need it.

- Test system: TGF-β-stimulated SMAD3 phosphorylation in BEAS-2B cells
- protocol notes: Cellular ALK5 potency assay, inhibition of TGF-β stimulated pSMAD3 formation in BEAS-2B cells
- Format: cell-based
- condition info: Homo sapiens, inhibition of TGF-β (10 ng/mL) stimulated pSMAD3 formation, 1 hour compound incubation, read-out: BEAS2B pIC50 (converted)
experimental readout: IC50

COC(=O)CC1CNCCN1CCNc1cnc2ccc(-c3nc[nH]c3-c3cc(Cl)ccc3F)nc2c1 (stereo not shown) yielded IC50 of 25.1 to 158 nM

Field IC50 (entry `CNC(=O)[C@@H]1CN(c2cnc3ccc(-c4c[nH]nc4-c4cc(Cl)c(F)cc4F)nc3c2)CCN1` ) reads 25.1 to 158 nM

// IC50 value for CNC(=O)C1CN(c2cnc3ccc(-c4c[nH]nc4-c4cc(Cl)ccc4F)nc3c2)CCN1 (racemic) : 25.1 to 158 nM

Memo: `COCc1cccc(-c2n[nH]cc2-c2ccc3ncc(NCCN4CCN(C(C)C)CC4)cc3n2)c1` , reported IC50: 200 to 1260 nM

Noted for `CC(C)N1CCN(CCNc2cnc3ccc(-c4nn[nH]c4-c4cc(Cl)ccc4F)cc3c2)CC1` : its IC50 reads 25.1 to 158 nM

// `Fc1ccc(Cl)cc1-c1nc2ccccn2c1-c1ccc2ncc(N3CCNCC3)cc2c1` : IC50 value = 200 to 1260 nM

Record `Fc1ccc(Cl)cc1-c1[nH]cnc1-c1ccc2ncc(NC[C@@H]3CCCN3)cc2n1` , field IC50: 200 to 1260 nM
